Exercise: for every item that follows, state its recorded MAB (mouse).
Assay: Microsome incubation, metabolic stability (mouse)
Format: in vitro ADME
Settings: maximal achievable bioavailability = 1-E, extrapolated from intrinsic clearance
# answer = value followed by unit

Exercise: Recorded MAB (mouse) for CC(O)(C(=O)NCC(F)(F)C(F)(F)F)C(=O)N[C@H]1CN(C(=O)OCC(F)(F)F)c2cc(F)c(F)cc2NC1=O (single isomer, unassigned) , please?
Solution: 58.5%

Exercise: Recorded MAB (mouse) for CC(O)(C(=O)NCC(F)(F)C(F)(F)F)C(=O)N[C@H]1CN(C(=O)OCC(F)(F)F)c2ccccc2NC1=O (single isomer, unassigned) , please?
Solution: 85.5%

Exercise: Recorded MAB (mouse) for CC(O)(C(=O)NCC(F)(F)C(F)(F)F)C(=O)N[C@H]1CN(C(=O)OCC(F)(F)F)c2ccccc2N(CCO)C1=O (single isomer, unassigned) , please?
Solution: 97.2%

Exercise: Recorded MAB (mouse) for CC(O)(C(=O)NCC(F)(F)C(F)(F)F)C(=O)N[C@H]1CN(C(=O)OCC(F)(F)F)c2cc(F)c(F)cc2N(CC(F)(F)F)C1=O (single isomer, unassigned) , please?
Solution: 83.0%
